Biological target: T1, human CD131 (human, UniProt P32927 17-897)
T1 sequence: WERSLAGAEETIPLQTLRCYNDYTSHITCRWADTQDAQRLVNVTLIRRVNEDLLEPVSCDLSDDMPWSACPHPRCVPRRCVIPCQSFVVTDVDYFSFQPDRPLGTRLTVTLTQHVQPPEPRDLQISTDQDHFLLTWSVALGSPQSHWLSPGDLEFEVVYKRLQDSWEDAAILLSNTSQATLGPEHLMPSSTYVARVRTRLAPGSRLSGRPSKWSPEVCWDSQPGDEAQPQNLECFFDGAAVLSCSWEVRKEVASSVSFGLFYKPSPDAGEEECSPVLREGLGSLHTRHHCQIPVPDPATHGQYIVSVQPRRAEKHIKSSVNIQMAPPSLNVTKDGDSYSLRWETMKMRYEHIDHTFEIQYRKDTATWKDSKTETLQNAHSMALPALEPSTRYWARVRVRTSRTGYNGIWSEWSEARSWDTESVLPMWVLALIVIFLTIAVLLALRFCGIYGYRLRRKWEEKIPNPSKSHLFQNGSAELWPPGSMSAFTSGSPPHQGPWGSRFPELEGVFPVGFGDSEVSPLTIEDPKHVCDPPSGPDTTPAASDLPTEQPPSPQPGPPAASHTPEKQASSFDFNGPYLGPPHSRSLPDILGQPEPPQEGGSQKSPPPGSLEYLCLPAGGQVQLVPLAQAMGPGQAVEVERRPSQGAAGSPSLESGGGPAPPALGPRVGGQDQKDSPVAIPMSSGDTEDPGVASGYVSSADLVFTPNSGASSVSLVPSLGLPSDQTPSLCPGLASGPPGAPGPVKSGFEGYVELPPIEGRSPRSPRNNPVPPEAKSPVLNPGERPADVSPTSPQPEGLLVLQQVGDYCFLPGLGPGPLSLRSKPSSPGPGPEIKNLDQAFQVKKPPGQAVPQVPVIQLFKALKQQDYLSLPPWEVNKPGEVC
Assay: cell-based or functional assay
Reported IC50 GM-CSF, TF-1 proliferation by item:
Reply with just the number (in nM).

>  <binder>
9A2-VR39.12 (antibody, V domains shown) VH: EVQLLESGGGLVQPGGSLRLSCAASGFTFFWFNTVWVRQAPGKGLEWVSSINGRGRVTYYADSVKGRFTISRDNSKNTLYLQMNSLRAEDTAVYYCARFYDSFFDIWGQGTMVTVSS VL: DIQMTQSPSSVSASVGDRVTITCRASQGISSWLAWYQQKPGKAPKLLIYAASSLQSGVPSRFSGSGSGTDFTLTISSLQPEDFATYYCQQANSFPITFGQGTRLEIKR

>  <IC50 GM-CSF, TF-1 proliferation (nM)>
25.1

$$$$

Here is the next item to consider.
## Task Quick one: IC50 GM-CSF, TF-1 proliferation for 9A2-VR24.10 (antibody, V domains shown) VH: EVQLLESGGGLVQPGGSLRLSCAASGFTFPWYRVHWVRQAPGKGLEWVSSIHTGSQWTYYADSVKGRFTISRDNSKNTLYLQMNSLRAEDTAVYYCARFYDSFFDIWGQGTMVTVSS VL: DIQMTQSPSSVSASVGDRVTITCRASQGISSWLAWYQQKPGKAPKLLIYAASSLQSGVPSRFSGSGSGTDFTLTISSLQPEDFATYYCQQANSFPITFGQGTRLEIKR ?
## Result 9.52
